Biological target: HA of ca A/Texas/36/91 (H1N1) (influenza A virus)
Assay: cell-based or functional assay
VALUE_KIND: Neutralization IC50, H1-TX91 (µg/mL)
Express the result in µg/mL but write the number alone.

Find the recorded Neutralization IC50, H1-TX91 belonging to Antibody 3 (antibody, V domains shown) VH: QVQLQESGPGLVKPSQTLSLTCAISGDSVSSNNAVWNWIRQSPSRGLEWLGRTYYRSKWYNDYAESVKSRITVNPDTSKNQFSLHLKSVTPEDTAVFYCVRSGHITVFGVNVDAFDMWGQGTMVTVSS VL: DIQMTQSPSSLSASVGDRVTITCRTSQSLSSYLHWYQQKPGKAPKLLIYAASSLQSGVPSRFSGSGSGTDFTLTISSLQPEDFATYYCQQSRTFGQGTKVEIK and report it.
0.92

Find the recorded Neutralization IC50, H1-TX91 belonging to Antibody 15 (antibody, V domains shown) VH: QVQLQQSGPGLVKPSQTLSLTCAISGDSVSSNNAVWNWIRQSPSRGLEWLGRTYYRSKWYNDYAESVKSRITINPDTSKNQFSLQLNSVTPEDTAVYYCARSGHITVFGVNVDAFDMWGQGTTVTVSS VL: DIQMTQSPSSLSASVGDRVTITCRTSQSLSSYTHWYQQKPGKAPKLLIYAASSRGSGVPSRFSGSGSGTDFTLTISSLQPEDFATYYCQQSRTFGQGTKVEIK and report it.
0.13

Find the recorded Neutralization IC50, H1-TX91 belonging to Antibody 13 (antibody, V domains shown) VH: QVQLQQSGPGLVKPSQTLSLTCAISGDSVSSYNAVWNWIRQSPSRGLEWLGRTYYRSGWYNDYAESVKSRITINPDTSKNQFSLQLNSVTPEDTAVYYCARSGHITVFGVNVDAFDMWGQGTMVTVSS VL: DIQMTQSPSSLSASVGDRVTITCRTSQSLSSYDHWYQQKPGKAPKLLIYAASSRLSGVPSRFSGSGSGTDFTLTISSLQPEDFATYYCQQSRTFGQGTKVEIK and report it.
0.09
